# Tested on: Leishmania braziliensis promastigotes
# Assay Explanation: Leishmanicidal activity against L. braziliensis promastigotes (XTT, 72 h)
# Conditions Used: mouse (RAW cells); Leishmania braziliensis (parasite), L. brasiliensis SI (selectivity index, cytotoxicity/anti-protozoal activity), IC50 RAW cells / IC50 L. braziliensis
Property: selectivity ratio at 72 h

{"columns": ["Compound", "Property", "Value Measured"],
 "data": [
  ["COc1ccc2c(c1)OC(C)(C)c1ccc(CO)cc1-2 [10a]", "selectivity ratio at 72 h", 1.6],
  ["CCC1(CC)Oc2ccc(OC)cc2-c2cc(CO)ccc21 [8f]", "selectivity ratio at 72 h", 0.9],
  ["CCCCCc1ccc2c(c1)-c1cc(CO)ccc1C(C)(C)O2 [10h]", "selectivity ratio at 72 h", 0.8],
  ["COc1ccc2c(c1)-c1cc(CO)ccc1C(C)O2 (stereo not shown) [8b]", "selectivity ratio at 72 h", 0.2],
  ["CC(C)c1ccc2c(c1)-c1cc(CO)ccc1C(C)(C)O2 [10f]", "selectivity ratio at 72 h", 0.5],
  ["CC(C)c1ccc2c(c1)OC(C)(C)c1ccc(CO)cc1-2 [10g]", "selectivity ratio at 72 h", 1.1],
  ["CCCCC1(CCCC)Oc2ccc(OC)cc2-c2cc(CO)ccc21 [8g]", "selectivity ratio at 72 h", 1.2],
  ["CCC1Oc2ccc(OC)cc2-c2cc(CO)ccc21 (stereo not shown) [8d]", "selectivity ratio at 72 h", 0.7],
  ["Cc1ccc2c(c1)-c1cc(CO)ccc1C(C)(C)O2 [10c]", "selectivity ratio at 72 h", 1],
  ["Cc1ccc2c(c1)OC(C)(C)c1ccc(CO)cc1-2 [10d]", "selectivity ratio at 72 h", 0.9],
  ["CC1(C)Oc2ccccc2-c2cc(CO)ccc21 [10e]", "selectivity ratio at 72 h", 0.8],
  ["COc1cccc2c1-c1cc(CO)ccc1C(C)(C)O2 [10b]", "selectivity ratio at 72 h", 1],
  ["COc1ccc2c(c1)-c1cc(CO)ccc1CO2 [8a]", "selectivity ratio at 72 h", 0.3]
]}

* * *

# Assay Explanation: Cytotoxicity on RAW cells (resazurin, 72 h)
# Conditions Used: mouse

{"columns": ["Compound", "IC50 at 72 h (µM)"],
 "data": [
  ["Cc1ccc2c(c1)OC(C)(C)c1ccc(CO)cc1-2 [10d]", 35.4],
  ["CCCCCc1ccc2c(c1)-c1cc(CO)ccc1C(C)(C)O2 [10h]", 12.9],
  ["COc1ccc2c(c1)OC(C)(C)c1ccc(CO)cc1-2 [10a]", 59.2],
  ["CC(C)c1ccc2c(c1)-c1cc(CO)ccc1C(C)(C)O2 [10f]", 8.9],
  ["CC(C)c1ccc2c(c1)OC(C)(C)c1ccc(CO)cc1-2 [10g]", 22],
  ["CCCCC1(CCCC)Oc2ccc(OC)cc2-c2cc(CO)ccc21 [8g]", 35.3],
  ["COc1cccc2c1-c1cc(CO)ccc1C(C)(C)O2 [10b]", 48.1]
]}

* * *

# Tested on: Trypanosoma cruzi epimastigotes
# Assay Explanation: Trypanocidal activity against T. cruzi epimastigotes (XTT, 72 h)
# Assay type: cell-based
# Conditions Used: IC50 RAW cells / IC50 T. cruzi
Property: T. cruzi SI (selectivity index, cytotoxicity/anti-protozoal activity)

{"columns": ["Compound", "Value Measured"],
 "data": [
  ["COc1ccc2c(c1)-c1cc(CO)ccc1C(C)O2 (stereo not shown)", 0.8],
  ["O=C(Cn1ccnc1[N+](=O)[O-])NCc1ccccc1 [Benznidazole, reference compound]", 3.9],
  ["CCC1Oc2ccc(OC)cc2-c2cc(CO)ccc21 (stereo not shown)", 1.2],
  ["COc1ccc2c(c1)-c1cc(CO)ccc1C(C)(C)O2", 1.7]
]}

* * *

# Tested on: Trypanosoma cruzi epimastigotes
# Assay Explanation: Trypanocidal activity against T. cruzi epimastigotes (XTT, 72 h)
# Format: cell-based
# Conditions Used: mouse (RAW cells); Trypanosoma cruzi (parasite), RAW 264.7 macrophage cells versus T. cruzi epimastigotes, IC50 RAW cells / IC50 T. cruzi; read-out: T. cruzi SI (selectivity index, cytotoxicity/anti-protozoal activity)
A collection of compounds and their measured selectivity ratio at 72 h

{"columns": ["Compound", "selectivity ratio at 72 h"],
 "data": [
  ["CC1(C)Oc2ccccc2-c2cc(CO)ccc21 [10e]", 1.2],
  ["CCCCC1(CCCC)Oc2ccc(OC)cc2-c2cc(CO)ccc21", 1.5],
  ["COc1ccc2c(c1)-c1cc(CO)ccc1C(C)O2 (stereo not shown)", 1],
  ["Cc1ccc2c(c1)-c1cc(CO)ccc1C(C)(C)O2 [10c]", 1.3],
  ["CCCCCc1ccc2c(c1)-c1cc(CO)ccc1C(C)(C)O2 [10h]", 2],
  ["CCC1Oc2ccc(OC)cc2-c2cc(CO)ccc21 (stereo not shown)", 0.6],
  ["COc1cccc2c1-c1cc(CO)ccc1C(C)(C)O2 [10b]", 0.5],
  ["Cc1ccc2c(c1)OC(C)(C)c1ccc(CO)cc1-2 [10d]", 1.1],
  ["CC(C)c1ccc2c(c1)-c1cc(CO)ccc1C(C)(C)O2 [10f]", 0.7],
  ["CC(C)c1ccc2c(c1)OC(C)(C)c1ccc(CO)cc1-2 [10g]", 1.6],
  ["COc1ccc2c(c1)OC(C)(C)c1ccc(CO)cc1-2 [10a]", 0.7],
  ["COc1ccc2c(c1)-c1cc(CO)ccc1CO2", 1.3],
  ["CCC1(CC)Oc2ccc(OC)cc2-c2cc(CO)ccc21", 4.2]
]}

* * *

# Test system: Leishmania amazonensis promastigotes
# Assay Explanation: Leishmanicidal activity against L. amazonensis promastigotes (XTT, 72 h)
# Conditions Used: Leishmania amazonensis, 72 h, read-out: L. amazoniensis IC50, promastigotes, 72 h, average ± SD of at least three experiments
Recorded IC50 for the following molecules
Property: IC50 (µM)

{"columns": ["Molecule", "Value Measured"],
 "data": [
  ["COc1ccc2c(c1)OC(C)(C)c1ccc(CO)cc1-2 [10a]", 66.6],
  ["CCCCC1(CCCC)Oc2ccc(OC)cc2-c2cc(CO)ccc21", 25.4],
  ["CC(C)c1ccc2c(c1)OC(C)(C)c1ccc(CO)cc1-2 [10g]", 21.2],
  ["Cc1ccc2c(c1)-c1cc(CO)ccc1C(C)(C)O2 [10c]", 64.9],
  ["COc1cccc2c1-c1cc(CO)ccc1C(C)(C)O2 [10b]", 180],
  ["Cc1ccc2c(c1)OC(C)(C)c1ccc(CO)cc1-2 [10d]", 51.9]
]}

* * *

# System: Leishmania braziliensis promastigotes
# Assay Explanation: Leishmanicidal activity against L. braziliensis promastigotes (XTT, 72 h)
# Conditions Used: 72 h, read-out: L. brasiliensis IC50, promastigotes, 72 h, average ± SD of at least three experiments
Property: IC50

{"columns": ["Molecule", "Value Measured"],
 "data": [
  ["COc1ccc2c(c1)-c1cc(CO)ccc1C(C)O2 (stereo not drawn)", "156 µM"],
  ["CCCCCCCCCCCCCCCCOP(=O)([O-])OCC[N+](C)(C)C [Miltefosine, reference compound]", "13 µM"],
  ["COc1ccc2c(c1)OC(C)(C)c1ccc(CO)cc1-2 [10a]", "37.4 µM"],
  ["COc1ccc2c(c1)-c1cc(CO)ccc1C(C)(C)O2", "59.2 µM"],
  ["CCC1(CC)Oc2ccc(OC)cc2-c2cc(CO)ccc21", "46.9 µM"],
  ["CC(C)c1ccc2c(c1)OC(C)(C)c1ccc(CO)cc1-2 [10g]", "19.1 µM"],
  ["CC1(C)Oc2ccccc2-c2cc(CO)ccc21 [10e]", "74.9 µM"],
  ["COc1ccc2c(c1)-c1cc(CO)ccc1CO2", "248 µM"],
  ["Cc1ccc2c(c1)OC(C)(C)c1ccc(CO)cc1-2 [10d]", "40.1 µM"],
  ["COc1cccc2c1-c1cc(CO)ccc1C(C)(C)O2 [10b]", "48.1 µM"],
  ["CCC1Oc2ccc(OC)cc2-c2cc(CO)ccc21 (stereo not drawn)", "45.9 µM"],
  ["CCCCC1(CCCC)Oc2ccc(OC)cc2-c2cc(CO)ccc21", "29.3 µM"],
  ["CC(C)c1ccc2c(c1)-c1cc(CO)ccc1C(C)(C)O2 [10f]", "18.1 µM"],
  ["Cc1ccc2c(c1)-c1cc(CO)ccc1C(C)(C)O2 [10c]", "39.3 µM"],
  ["CCCCCc1ccc2c(c1)-c1cc(CO)ccc1C(C)(C)O2 [10h]", "16.4 µM"]
]}

* * *

# Tested on: Leishmania amazonensis promastigotes
# Assay Explanation: Leishmanicidal activity against L. amazonensis promastigotes (XTT, 72 h)
# Conditions Used: IC50 RAW cells / IC50 L. amazonensis
Property: L. amazoniensis SI (selectivity index, cytotoxicity/anti-protozoal activity)

{"columns": ["Molecule", "Value Measured"],
 "data": [
  ["COc1ccc2c(c1)-c1cc(CO)ccc1C(C)O2 (stereo not shown) [8b]", 0.2],
  ["COc1ccc2c(c1)-c1cc(CO)ccc1C(C)(C)O2 [compound 1, pulchrol]", 0.4],
  ["CCC1Oc2ccc(OC)cc2-c2cc(CO)ccc21 (stereo not shown) [8e]", 0.6],
  ["COc1ccc2c(c1)-c1cc(CO)ccc1C(C)O2 (stereo not shown) [8c]", 0.7]
]}
